Data credit: ChEMBL document CHEMBL4837256

Experiment: Selectivity ratio of HC10 for human RBC to MIC for Cryptococcus neoformans H99S
Format: toxicity
Conditions: red blood cells (RBC)
Where a SMILES comes first, the peptide text is derived from it. [ ]: non-standard residue; d: D form. N(tridecyl)Gly = CCCCCCCCCCCCCNCC(=O)O; Gly(N-2-aminoethyl) = NCCNCC(=O)O; Gly(N-cHex) = O=C(O)CNC1CCCCC1; Nlys = NCCCCNCC(=O)O
Quantity kind: selectivity ratio

>>> test_value("CCCCCCCCCCCCCNCC(=O)N(CC(=O)N(CCCCN)CC(=O)N(CCN)CC(=O)N(CC(N)=O)C1CCCCC1)C1CCCCC1 (H-[N(tridecyl)Gly][Gly(N-cHex)][Nlys][Gly(N-2-aminoethyl)][Gly(N-cHex)]-NH2)")
49

====

Assay: Cytotoxicity against mouse 3T3 cells assessed as cell death measured after 72 hrs by MTT assay
Format: cell-based
Conditions: read-out: TD50
Where a SMILES comes first, the peptide text is derived from it. [ ]: non-standard residue; d: D form. N(tridecyl)Gly = CCCCCCCCCCCCCNCC(=O)O; Gly(N-2-aminoethyl) = NCCNCC(=O)O; Gly(N-cHex) = O=C(O)CNC1CCCCC1; Nlys = NCCCCNCC(=O)O
Quantity kind: CC50 at 72 h

>>> test_value("CCCCCCCCCCCCCNCC(=O)N(CC(=O)N(CCCCN)CC(=O)N(CCN)CC(=O)N(CC(N)=O)C1CCCCC1)C1CCCCC1 (H-[N(tridecyl)Gly][Gly(N-cHex)][Nlys][Gly(N-2-aminoethyl)][Gly(N-cHex)]-NH2)")
"59 µg/mL"

====

Assay: Cytotoxicity against human HPL1A cells assessed as cell death measured after 72 hrs by MTT assay
Assay type: cell-based
Conditions: read-out: TD50
Where a SMILES comes first, the peptide text is derived from it. [ ]: non-standard residue; d: D form. N(tridecyl)Gly = CCCCCCCCCCCCCNCC(=O)O; Gly(N-2-aminoethyl) = NCCNCC(=O)O; Gly(N-cHex) = O=C(O)CNC1CCCCC1; Nlys = NCCCCNCC(=O)O
Quantity kind: CC50 at 72 h (µg/mL)

>>> test_value("CCCCCCCCCCCCCNCC(=O)N(CC(=O)N(CCCCN)CC(=O)N(CCN)CC(=O)N(CC(N)=O)C1CCCCC1)C1CCCCC1 (H-[N(tridecyl)Gly][Gly(N-cHex)][Nlys][Gly(N-2-aminoethyl)][Gly(N-cHex)]-NH2)")
74

====

Experiment: Cytotoxicity against human HaCaT cells assessed as cell death measured after 72 hrs by MTT assay
Format: cell-based
Details: read-out: TD50
Where a SMILES comes first, the peptide text is derived from it. [ ]: non-standard residue; d: D form. N(tridecyl)Gly = CCCCCCCCCCCCCNCC(=O)O; Gly(N-2-aminoethyl) = NCCNCC(=O)O; Gly(N-cHex) = O=C(O)CNC1CCCCC1; Nlys = NCCCCNCC(=O)O
Quantity kind: CC50 at 72 h (µg/mL)

>>> test_value("CCCCCCCCCCCCCNCC(=O)N(CC(=O)N(CCCCN)CC(=O)N(CCN)CC(=O)N(CC(N)=O)C1CCCCC1)C1CCCCC1 (H-[N(tridecyl)Gly][Gly(N-cHex)][Nlys][Gly(N-2-aminoethyl)][Gly(N-cHex)]-NH2)")
54

====

Assay: Cytotoxicity against human HepG2 cells assessed as cell death measured after 72 hrs by MTT assay
Type: cell-based
Details: read-out: TD50
Where a SMILES comes first, the peptide text is derived from it. [ ]: non-standard residue; d: D form. N(tridecyl)Gly = CCCCCCCCCCCCCNCC(=O)O; Gly(N-2-aminoethyl) = NCCNCC(=O)O; Gly(N-cHex) = O=C(O)CNC1CCCCC1; Nlys = NCCCCNCC(=O)O; Sar = CNCC(=O)O
Below: a set of entries, each annotated with reported CC50 at 72 h.
Quantity kind: CC50 at 72 h (µg/mL)

>>> test_value("CCCCCCCCCCCCCNCC(=O)N(CC(=O)N(CCCCN)CC(=O)N(C)CC(=O)N(CC(N)=O)C1CCCCC1)C1CCCCC1 (H-[N(tridecyl)Gly][Gly(N-cHex)][Nlys][Sar][Gly(N-cHex)]-NH2)")
84
>>> test_value("CCCCCCCCCCCCCNCC(=O)N(CC(=O)N(C)CC(=O)N(CCN)CC(=O)N(CC(N)=O)C1CCCCC1)C1CCCCC1")
83
>>> test_value("CCCCCCCCCCCCCNCC(=O)N(CC(=O)N(CCCCN)CC(=O)N(CCN)CC(=O)N(CC(N)=O)C1CCCCC1)C1CCCCC1 (H-[N(tridecyl)Gly][Gly(N-cHex)][Nlys][Gly(N-2-aminoethyl)][Gly(N-cHex)]-NH2)")
189
